Source listed as ChEMBL document CHEMBL4732138.

Listing: logD of selected compounds
- Method Description: n-octanol-water distribution coefficient, log D of the compound at pH 7.4 by shake flask method
- Type: physicochemical
- Run Parameters: n-octanol/water, read-out: logD
In your answer, state the number alone without any accompanying words.

{"columns": ["Smiles Record", "logD"],
 "data": [
  ["CC(C)[C@@H](C)Nc1c(-c2c(F)cc(C#N)cc2F)c(Cl)nc2ncnn12", 2.47],
  ["C[C@@H](Nc1c(-c2c(F)cc(C#N)cc2F)c(Cl)nc2ncnn12)C(C)(C)C", 2.35],
  ["CC(C)[C@@H](C)Nc1c(-c2c(F)cc(F)cc2F)c(Cl)nc2ncnn12", 3.51],
  ["CC(C)[C@@H](C)Nc1c(-c2c(F)cccc2F)c(Cl)nc2ncnn12", 3.16],
  ["N#Cc1cc(F)c(-c2c(Cl)nc3ncnn3c2N2CCCCCC2)c(F)c1", 2.12],
  ["N#Cc1ccc(-c2c(Cl)nc3ncnn3c2N2CCCCCC2)c(F)c1", 3.15],
  ["C[C@@H](Nc1c(-c2ccc(C#N)cc2F)c(Cl)nc2ncnn12)C(C)(C)C", 2.86],
  ["CO[C@H]1C[C@H]2CC[C@@H](C1)N2c1c(-c2c(F)cc(F)cc2F)c(Cl)nc2ncnn12", 3.38]
]}

Kindly indicate its recorded logD. Item: CC(C)[C@@H](C)Nc1c(-c2ccccc2F)c(Cl)nc2ncnn12
2.95

Kindly indicate its recorded logD. Item: Fc1cc(F)c(-c2c(Cl)nc3ncnn3c2N2CCCCCC2)c(F)c1
3.38

====

Listing: fold change (FC) of selected compounds
- Measured On: Tubulin (Homo sapiens) (UniProt P68371+Q9H4B7+P0DPH7+P68366+Q13509+Q71U36+P04350+Q3ZCM7+P07437+P68363+Q9BQE3+Q6PEY2+Q13885+Q9BVA1+Q9BUF5)
- Method Description: Stabilization of microtubules in human QBI293 cells assessed as fold change in acetylated tubulin levels at 10 uM after 4 hrs by ELISA relative to DMSO
- Format: cell-based

Check out these entries, answers already filled in.
{"columns": ["Compound", "fold change (FC)"],
 "data": [
  ["CC(Oc1c(-c2c(F)cc(F)cc2F)c(Cl)nc2ncnn12)C(F)(F)F (stereo not drawn)", 1.01],
  ["CC(C)[C@@H](C)Nc1c(-c2ccccc2F)c(Cl)nc2ncnn12", 2.1],
  ["C[C@H](Nc1c(-c2ccc(C#N)cc2F)c(Cl)nc2ncnn12)C(F)(F)F", 3.64],
  ["Fc1cc(F)c(-c2c(Cl)nc3ncnn3c2N2CCCCCC2)c(F)c1", 6.87],
  ["Fc1cc(F)c(-c2c(Cl)nc3ncnn3c2NCc2ccccc2)c(F)c1", 1.49]
]}

Kindly indicate its recorded fold change (FC). Item: C[C@H](Nc1c(-c2ccc(F)c(F)c2)c(Cl)nc2ncnn12)C(F)(F)F
4.76

Kindly indicate its recorded fold change (FC). Item: CC(C)CNc1c(-c2c(F)cc(F)cc2F)c(Cl)nc2ncnn12
2.28

Kindly indicate its recorded fold change (FC). Item: C[C@H](Nc1c(-c2ccccc2F)c(Cl)nc2ncnn12)C(F)(F)F
3.56

Kindly indicate its recorded fold change (FC). Item: C[C@H](Nc1c(-c2c(F)cc(C(F)(F)F)cc2F)c(Cl)nc2ncnn12)C(F)(F)F
1.39

Kindly indicate its recorded fold change (FC). Item: C[C@H](Nc1c(-c2c(F)cc([S+](C)[O-])cc2F)c(Cl)nc2ncnn12)C(F)(F)F (stereo partly drawn)
0.87

Kindly indicate its recorded fold change (FC). Item: C[C@H](Nc1c(-c2c(F)cccc2F)c(Cl)nc2ncnn12)C(F)(F)F
5.28

Kindly indicate its recorded fold change (FC). Item: COc1cc(F)c(-c2c(Cl)nc3ncnn3c2N[C@@H](C)C(F)(F)F)c(F)c1
2.07

Kindly indicate its recorded fold change (FC). Item: CC(C)[C@@H](C)Nc1c(-c2ccc(C#N)cc2F)c(Cl)nc2ncnn12 (stereo in doubt; 68)
2.29

====

- Measured On: Tubulin (Homo sapiens) (UniProt P68371+Q9H4B7+P0DPH7+P68366+Q13509+Q71U36+P04350+Q3ZCM7+P07437+P68363+Q9BQE3+Q6PEY2+Q13885+Q9BVA1+Q9BUF5)
- Method Description: Stabilization of microtubules in human QBI293 cells assessed as fold change in acetylated tubulin levels at 10 uM after 4 hrs by ELISA relative to cevipabulin
- Assay type: cell-based
Outcome Measure: fold change (FC)

Check out these entries, answers already filled in.
{"columns": ["Compound", "Result"],
 "data": [
  ["C[C@H](Nc1c(-c2c(F)cc(C(F)(F)F)cc2F)c(Cl)nc2ncnn12)C(F)(F)F", 0.16],
  ["C[C@H](Nc1c(-c2c(F)cc(S(C)(=O)=O)cc2F)c(Cl)nc2ncnn12)C(F)(F)F", 0.19]
]}

Kindly indicate its recorded fold change (FC). Item: C[C@H](Nc1c(-c2ccccc2F)c(Cl)nc2ncnn12)C(F)(F)F
0.26

Kindly indicate its recorded fold change (FC). Item: CC(C)Nc1c(-c2c(F)cc(F)cc2F)c(Cl)nc2ncnn12
0.27

Kindly indicate its recorded fold change (FC). Item: Fc1cc(F)c(-c2c(Cl)nc3ncnn3c2NC2CC2)c(F)c1
0.07

Kindly indicate its recorded fold change (FC). Item: C[C@H](Nc1c(-c2c(F)cc([S@@+]([O-])CCCN(C)C)cc2F)c(Cl)nc2ncnn12)C(F)(F)F
0.32

Kindly indicate its recorded fold change (FC). Item: CC(Oc1c(-c2c(F)cc(F)cc2F)c(Cl)nc2ncnn12)C(F)(F)F (stereo unspecified)
0.21

Kindly indicate its recorded fold change (FC). Item: Fc1cc(F)c(-c2c(Cl)nc3ncnn3c2N2CCCCCC2)c(F)c1
0.74

====

- Measured On: Tubulin (Homo sapiens) (UniProt P68371+Q9H4B7+P0DPH7+P68366+Q13509+Q71U36+P04350+Q3ZCM7+P07437+P68363+Q9BQE3+Q6PEY2+Q13885+Q9BVA1+Q9BUF5)
- Method Description: Stabilization of microtubules in human QBI293 cells assessed as fold change in alpha tubulin levels at 10 uM after 4 hrs by ELISA relative to DMSO
- Format: cell-based
Listing: fold change (FC) of selected compounds
In your answer, state the number alone without any accompanying words.

Check out these entries, answers already filled in.
{"columns": ["Compound", "fold change (FC)"],
 "data": [
  ["C[C@H](Nc1c(-c2c(F)cc(Cl)cc2F)c(Cl)nc2ncnn12)C(F)(F)F", 0.81],
  ["C[C@H](Nc1c(-c2ccc(F)cc2F)c(Cl)nc2ncnn12)C(F)(F)F", 0.86],
  ["COc1cc(F)c(-c2c(Cl)nc3ncnn3c2N[C@@H](C)C(F)(F)F)c(F)c1", 0.51],
  ["CC(Cc1c(-c2c(F)cc(F)cc2F)c(Cl)nc2ncnn12)C(F)(F)F (configuration not stated)", 0.78],
  ["C[C@H](Nc1c(-c2c(F)cc(S(=O)(=O)CCCN(C)C)cc2F)c(Cl)nc2ncnn12)C(F)(F)F", 1.07]
]}

Kindly indicate its recorded fold change (FC). Item: CC(Nc1c(-c2c(F)cc(F)cc2F)c(Cl)nc2ncnn12)C(F)F (configuration not stated)
1.17

Kindly indicate its recorded fold change (FC). Item: CC(C)[C@@H](C)Nc1c(-c2ccccc2F)c(Cl)nc2ncnn12
1.04

Kindly indicate its recorded fold change (FC). Item: Oc1c(-c2c(F)cc(F)cc2F)c(Cl)nc2ncnn12
1.02

Kindly indicate its recorded fold change (FC). Item: N#Cc1ccc(-c2c(Cl)nc3ncnn3c2N2CCCCCC2)c(F)c1
0.99

Kindly indicate its recorded fold change (FC). Item: CO[C@H]1C[C@H]2CC[C@@H](C1)N2c1c(-c2c(F)cc(F)cc2F)c(Cl)nc2ncnn12
1.38

Kindly indicate its recorded fold change (FC). Item: Fc1cc(F)c(-c2c(Cl)nc3ncnn3c2N2CCCC2)c(F)c1
1.18

Kindly indicate its recorded fold change (FC). Item: C[C@H](Nc1c(-c2c(F)cc(O)cc2F)c(Cl)nc2ncnn12)C(F)(F)F
0.57

====

- Measured On: Tubulin (Homo sapiens) (UniProt P68371+Q9H4B7+P0DPH7+P68366+Q13509+Q71U36+P04350+Q3ZCM7+P07437+P68363+Q9BQE3+Q6PEY2+Q13885+Q9BVA1+Q9BUF5)
- Method Description: Stabilization of microtubules in human QBI293 cells assessed as fold change in acetylated tubulin levels at 1 uM after 4 hrs by ELISA relative to cevipabulin
- Format: cell-based
Listing: fold change (FC) of selected molecules
In your answer, state the number alone without any accompanying words.

Check out these entries, answers already filled in.
{"columns": ["Smiles Record", "Outcome Measure", "Quantitative Result"],
 "data": [
  ["C[C@H](Nc1c(-c2cc(F)ccc2F)c(Cl)nc2ncnn12)C(F)(F)F", "fold change (FC)", 0.07],
  ["Fc1cc(F)c(-c2c(Cl)nc3ncnn3c2N2CCCCCC2)c(F)c1", "fold change (FC)", 0.45],
  ["C[C@H](Nc1c(-c2ccc(F)cc2)c(Cl)nc2ncnn12)C(F)(F)F", "fold change (FC)", 0.07]
]}

Kindly indicate its recorded fold change (FC). Item: CCCNc1c(-c2c(F)cc(F)cc2F)c(Cl)nc2ncnn12
0.27

Kindly indicate its recorded fold change (FC). Item: C[C@@H](Nc1c(-c2ccc(C#N)cc2F)c(Cl)nc2ncnn12)C(C)(C)C
0.71

Kindly indicate its recorded fold change (FC). Item: C[C@H](Nc1c(-c2ccccc2)c(Cl)nc2ncnn12)C(F)(F)F
0.12

Kindly indicate its recorded fold change (FC). Item: Cc1cc(F)c(-c2c(Cl)nc3ncnn3c2N[C@@H](C)C(F)(F)F)c(F)c1
0.28
